The origin of these recorded values is a melting point compilation (Tetko et al.; mined from patent text by program, amines drawn as free bases though some values may be those of a salt).

Overview of reported melting point across a group of compounds:

Sample answers from the record:
Cc1ncc(C(=O)O)c(C2=NC(C)(C(C)C)C(=O)N2)n1 (stereo not given); 56 to 57 °C
C=C(c1cccc(-c2cnnn2COCC)c1F)C(O)(Cn1cncn1)c1ccc(F)cc1F (stereo not given); 136 to 138 °C
Cc1ccccc1C(=O)Nc1ccc2oc3c(c2c1)CCCC3; 209 to 210 °C
CCCCCNC(=O)c1ccc(Cl)nn1; 98 to 101 °C

Please find the next compound below.
melting point for CC1(C)CCCC=C1c1ccc(C(=O)N2Cc3cccn3Cc3ccccc32)cc1 ?
118 °C

====

Overview of reported melting point across a group of molecules:

Sample answers from the record:
CC(=O)c1ccc(Cl)c(S(=O)(=O)Nc2ccccc2)c1; 142 °C
CSc1ccc(NC(=O)CN2CCN(CCSc3nc4ccccc4o3)CC2)c(C)n1; 116 to 117 °C
CCn1cc(C(=O)NCCc2ccncc2)c(=O)c2cnc(N3CCCC3)nc21; 175 to 177 °C

melting point for Nc1ccc(-c2cc(=O)c3cccnc3o2)cc1 ?
254 to 255 °C

melting point for CC1(C2CCCC2)Cc2cc(OCC(=O)NC(=N)N)c(Cl)c(Cl)c2C1=O (configuration not stated) ?
216 °C

melting point for COc1ccccc1CN1CCN(C)CC1C1=NCCN1 (configuration not stated) ?
168 to 170 °C

melting point for CCCC#Cc1ccnc2[nH]cc(-c3ccnc(N)n3)c12 ?
> 210 °C

melting point for CCC12CCC3C4CCC(=O)C=C4C=CC3C1CCC2OC(C)=O (configuration not stated) ?
163 to 177 °C

melting point for COc1ccc(-c2c(Cl)c(Cn3cnc4ccccc43)nc3sc4c(c23)CCS(=O)C4)cc1 (configuration not stated) ?
233 to 235 °C

melting point for CCNC(=O)Nc1scc(-c2ccccc2)c1C(=O)OCC ?
109 to 112 °C

melting point for CC(C)C1C(=O)Nc2ccc(O)cc21 (configuration not stated) ?
175 °C

melting point for COc1cc(C2(O)CCOCC2)ccc1OCc1ccc2ccccc2c1 ?
150 to 151 °C

melting point for CC(C)OC(=O)c1ncn2c1CN(C)C(=O)c1ccccc1-2 ?
190 to 192 °C

melting point for NS(=O)(=O)CC(=O)c1ccc(Cl)cc1Cl ?
136 to 139 °C

melting point for O=C(CCCOc1ccc2nc3[nH]c(=O)[nH]c3cc2c1)N1CCCCC1 ?
284 to 286 °C

====

readout: melting point

Sample answers from the record:
CCCn1nc2c(N)nc3c(c2c1CC(C)C)CCCC3; 167 to 168 °C
N#Cc1cnn(-c2c(Cl)cc(C(F)(F)F)cc2Cl)n1; 51 to 53 °C
CCOC(=O)CC(C)(C)NCC(O)c1ccc(O)c2[nH]c(C(=O)OCC)cc12 (centres undefined); 175 to 178 °C
COc1cc2c(cc1OC)CN(CCc1ccc(NC(=O)c3cccc4c(=O)c5cccc(C)c5[nH]c34)cc1)CC2; 175 °C
N#CCN1CCC(Nc2nc3ccccc3n2Cc2ccnc3ccccc23)CC1; 190 °C
Nc1nc(-c2ccc(CCCCN3CCN(c4nsc5ccccc45)CC3)cc2)cs1; 258 to 261 °C
COCCc1nc(-c2ccc(C(F)(F)F)cc2)ncc1COc1ccc(OC(C)(C)C(=O)O)c(C)c1; 120 °C
Nc1sc2c(c1C(=O)c1ccc3ccccc3c1)CCC(Cc1ccccc1)C2 (centres undefined); 69 to 70 °C

melting point for CCCC(=O)c1cnc2c(OCCCN(C)Cc3ccccc3)cccc2c1Nc1ccccc1C ?
100 to 102 °C

====

Overview of reported melting point across a group of compounds:

melting point for CCC#CCOc1cc2c(cc1/C=C/C=C/C(C)=C/C(=O)O)C(C)(C)CCC2(C)C ?
208 to 209 °C

melting point for C=C(c1ccc(Br)cc1)c1ccc(N(C)C)cc1 ?
126 to 127 °C

melting point for CCN1CCCC1CNC(=O)c1cc(S(=O)(=O)N(C)C)cc2c1OCCO2 (stereo not given) ?
146 to 148 °C

melting point for C=CCCCCCCCCC(=O)N1CCN(c2cc(N)nc(N)n2)CC1 ?
100 to 104 °C

melting point for CC(C)OC(=O)c1cc(-n2c(=O)[nH]c3c(c2=O)CCC3)c(Cl)cc1Cl ?
186 to 189 °C

====

readout: melting point

Sample answers from the record:
O=C1CC(c2cccc(-n3ccnc3)c2)=Nc2ccc(C#Cc3ccccc3)cc2N1; 193 to 196 °C
N#CCc1cccc(-c2ccc(OCCCC(=O)NO)cc2)c1; 140 to 144 °C
NCC#CCCCC(=O)O; 180 to 183 °C
Cc1ccc2c(n1)Nc1cc(C)c(C)cc1N(C)C2=O; 217 to 219 °C
CCn1c(=O)c(-c2cc(OC)cc(OC)c2)cc2cnc(S(C)=O)nc21 (centres undefined); 114 to 116 °C

melting point for C(=C1\CN2CCC1CC2)/N1c2ccccc2Sc2ccccc21 ?
149 to 153 °C

melting point for COc1ccc(Cn2cnc3c(-c4ccco4)ncnc32)cc1C ?
169 to 170 °C

melting point for COc1cc(OC2CCN(C(=O)Cc3c[nH]cn3)CC2)ccc1CC(=O)N1CCN(c2ccccc2C)CC1C(N)=O (centres undefined) ?
120 to 124 °C

melting point for COP(=O)(OC)C(C)C(NC(=O)OCc1ccccc1)C(=O)N[C@@H](Cc1ccccc1)[C@H](O)C(=O)N1C[C@@H](Cl)C[C@H]1C(=O)NC(C)(C)C (some centres undefined) ?
93 to 100 °C

melting point for CC(=O)NCc1ccc2c(c1)N(C1CCN(CCc3ccc(F)cc3)CC1)CC2 ?
160 to 162 °C

melting point for CN1C(=O)CC[C@]2(C)c3ccc(-c4cc(Cl)cc(Cl)c4)cc3CC[C@@H]12 ?
172 °C

melting point for CCOC(=O)CC1C(=O)N(CCc2c[nH]c3ccccc23)CCN1C(=O)c1ccccc1 (centres undefined) ?
144 °C

melting point for CN(c1ccc(OCc2ccc(OC(F)(F)F)cc2)cc1)C1CCN(c2ccc(OC[C@H]3CCn4cc([N+](=O)[O-])nc4O3)cc2)CC1 ?
142 to 144 °C

melting point for CC(C)(C)OC(=O)N1CCC=C(Cc2cn(S(=O)(=O)c3ccccc3)c3ccc(F)cc23)C1 ?
63 to 65 °C

melting point for CC(Cc1ccc(C(=O)c2ccc(Cl)cc2)cc1)S(=O)(=O)C(F)(F)F (centres undefined) ?
107 to 109 °C

melting point for Cc1ccc(CC(NCc2ccc(O)cc2)c2ccccc2)cc1 (centres undefined) ?
129 to 130 °C

====

Overview of reported melting point across a group of compounds:

CN(C)C=CC(=O)c1cncnc1; 133 to 135 °C
CN(C)C(=O)N[C@H]1CC[C@H](CCN2CCN(c3cccc(Cl)c3Cl)CC2)CC1; 212 to 214 °C
O=C1CCc2ccc(OC/C=C/CN3CCN(c4cccc(Cl)c4Cl)CC3)cc2N1; 151 to 152 °C
Cc1cc(C)nc(NC(=O)NS(=O)(=O)Nc2nc(C)cc(C)n2)n1; 198 °C
CCOC(=O)C1=C(C)N(C(C)=O)C(c2csc(C)n2)=NC1c1ccc(F)cc1 (stereo not given); 140 to 142 °C

melting point for COc1cc(Nc2ncc(C#N)c(-c3ccc(C(C)(C)N)cc3)n2)cc(OC)c1OC ?
167 to 168 °C

melting point for CCCCCCCCCCCCSC(C)(C)C=NNC(=O)CCc1cc(C(C)(C)C)c(O)c(C(C)(C)C)c1 ?
53 to 57 °C

melting point for Cc1cccc(N2CCOCC2)c1NC(N)=S ?
199 °C

melting point for CCNc1nc2n(n1)CCc1ccccc1-2 ?
100 to 101 °C

melting point for CC(=O)CC(=O)NCC1(C)CC(NC(=O)CC(C)=O)CC(C)(C)C1 (stereo not given) ?
144 to 147 °C

====

Overview of reported melting point across a group of compounds:

Cn1ccc(-n2ccnc2S)n1; 126 to 128 °C

Please find the next compound below.
melting point for COc1c(C)c(C(=O)c2ccc3nc(C)oc(=O)c3c2)n2ccccc12 ?
218 °C

====

readout: melting point

COc1ccc2c(c1)C(=O)c1c-2c(N2CCN(CC3CO3)CC2)nc2ccccc12 (stereo not given); 138 to 139 °C
CCOC(=O)c1cc(O)c(-c2ccccc2)c([N+](=O)[O-])c1; 128 to 130 °C
CCCSc1nc2ccc(Br)cc2c(=O)n1CCC; 65 to 67 °C
CCCN(C(=O)COc1c(Cl)cccc1Cl)C1CCc2c(ccc(O)c2O)C1 (stereo not given); 157 to 159 °C
COc1ccc2[nH]c(-c3ccc(OC)c4nc(C(F)(F)F)ccc34)nc2c1; 131 to 133 °C

melting point for O=C1NCN(c2ccc(Br)cc2)C12CCN(C1C=CC(c3ccc(F)cc3)(c3ccc(F)cc3)CC1)CC2 (stereo not given) ?
219 to 221 °C

melting point for CC1CCNC(C)C1(C)CCCO (stereo not given) ?
89 to 91 °C

melting point for CC(C)c1ccc(S(=O)(=O)Nc2nc(-c3cccc([N+](=O)[O-])c3)cs2)nc1 ?
208 to 210 °C

melting point for Cc1c(Cc2cccnc2)sc2cc(Br)ccc12 ?
69 to 70 °C

melting point for CC(=O)OC(c1ccc(OCc2ccccc2)cc1)C(F)(F)F (stereo not given) ?
85 to 87 °C
